Attribution: ChEMBL document CHEMBL1201862

For reference, AC50 measured on Cytochrome P450 3A4 (Homo sapiens):

COMPOUND	AC50
COc1cc(C2C(C(=O)c3cccs3)=C(O)C(=O)N2Cc2ccco2)cc(OC)c1OC (stereo not given)	25.1 µM (inconclusive)
NC1=C(c2nc(-c3ccc(F)cc3)cs2)C(=O)CN1CCCN1CCOCC1	10 µM (inconclusive)
CCCCCCCC/C=C\CCCCCCCC(=O)NCCO [OLEOYLETHANOLAMIDE]	31.6 µM (inconclusive)
COc1ncc2nc(CCc3ccccc3)c(=O)n(C3CC3)c2n1	31.6 µM (inconclusive)
Nc1ncnc2c1ncn2[C@@H]1O[C@@H](C(=O)NC2CC2)[C@H](O)[C@@H]1O	1 µM (inconclusive)

* * *

biological target: Rac GTPase-activating protein 1 (Homo sapiens); experiment: MgcRacGAP GTPase-activating activity inhibitors, confirmation, biochemical, ADP Hunter fluorescence, primary and confirmatory (AID 624330); assay type: functional
Sequence (Q9H0H5 whole entry): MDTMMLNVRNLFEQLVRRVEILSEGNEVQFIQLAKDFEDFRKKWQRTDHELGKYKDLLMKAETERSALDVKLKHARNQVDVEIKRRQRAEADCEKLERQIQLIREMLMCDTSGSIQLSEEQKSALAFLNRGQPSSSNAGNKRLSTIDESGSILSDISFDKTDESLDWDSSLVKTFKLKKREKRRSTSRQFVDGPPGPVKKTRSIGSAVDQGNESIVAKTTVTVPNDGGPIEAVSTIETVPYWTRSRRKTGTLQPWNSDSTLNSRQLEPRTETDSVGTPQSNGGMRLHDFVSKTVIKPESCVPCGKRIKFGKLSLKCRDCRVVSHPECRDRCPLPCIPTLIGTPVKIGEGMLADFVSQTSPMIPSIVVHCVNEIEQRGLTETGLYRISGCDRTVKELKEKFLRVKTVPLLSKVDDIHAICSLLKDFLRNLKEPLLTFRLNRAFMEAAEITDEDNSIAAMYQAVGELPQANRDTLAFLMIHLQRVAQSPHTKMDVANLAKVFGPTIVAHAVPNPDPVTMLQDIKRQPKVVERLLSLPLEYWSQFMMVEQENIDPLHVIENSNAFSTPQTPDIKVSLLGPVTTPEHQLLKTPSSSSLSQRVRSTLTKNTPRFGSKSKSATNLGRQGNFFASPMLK
Calls of active or inactive are those of the source. How the calls were made is not given here.
VALUE_TYPE: IC50

COMPOUND	TESTED_SYSTEM	MEASUREMENT
COc1ccc(CCNCc2ccccc2)cc1	Rac GTPase-activating protein 1 (Homo sapiens)	134 µM (active)
COc1ccc(NC2CCCN(C(=O)c3oc(C)cc3C)C2)cc1OC (stereo unspecified)	Rac GTPase-activating protein 1 (Homo sapiens)	159 µM (active)
COc1cc(/C=C/CN2CCC(CO)(CC3CCCCO3)CC2)ccc1O (stereo unspecified)	Rac GTPase-activating protein 1 (Homo sapiens)	91.2 µM (active)
COc1ccccc1CNC(=O)C[C@@H]1C[C@H]2c3cc(N(C)C)ccc3O[C@H]2[C@H](CO)O1	Rac GTPase-activating protein 1 (Homo sapiens)	153 µM (active)
O=c1cc(-c2ccc(O)c(O)c2)oc2cc(O)c(C3OC(CO)C(O)C(O)C3O)c(O)c12 (stereo unspecified)	Rac GTPase-activating protein 1 (Homo sapiens)	42.9 µM (active)
O=c1c2cc(F)ccc2sn1-c1ccccc1Cl	Rac GTPase-activating protein 1 (Homo sapiens)	35 µM (active)
O=c1/c(=C/c2ccc(O)cc2)sc2n1CCCN=2	Rac GTPase-activating protein 1 (Homo sapiens)	20.1 µM (active)
CCN(CC)S(=O)(=O)c1ccc(N/N=C/c2ccc(O)cc2)nc1	Rac GTPase-activating protein 1 (Homo sapiens)	31.5 µM (active)
COc1cc(/C=N/N=C2/SCC(=O)N2c2ccc(O)cc2)ccc1O	Rac GTPase-activating protein 1 (Homo sapiens)	65 µM (active)
O=C(CCC(=O)Nc1ccc(F)cc1)N/N=C/c1ccc(O)cc1	Rac GTPase-activating protein 1 (Homo sapiens)	62.8 µM (active)
Cc1nn2cc(-c3ccc(N)cc3)nc2s1	Rac GTPase-activating protein 1 (Homo sapiens)	110 µM (active)
N#C/C(=C/c1ccc(N2CCOCC2)o1)c1nc2ccccc2[nH]1	Rac GTPase-activating protein 1 (Homo sapiens)	20.4 µM (active)
COc1ccccc1N1CCN(CC(=O)NCC2CCCO2)CC1 (stereo unspecified)	Rac GTPase-activating protein 1 (Homo sapiens)	51.9 µM (active)
COc1cc(/C=N\NC(=O)CNC(=O)c2cccc([N+](=O)[O-])c2)ccc1O	Rac GTPase-activating protein 1 (Homo sapiens)	16.5 µM (active)
COc1cc(CN2CCN(Cc3ccc(C(F)(F)F)cc3)CC2)cc(OC)c1OC	Rac GTPase-activating protein 1 (Homo sapiens)	122 µM (active)
OC1CNc2c(ccc3ccccc23)C1 (stereo unspecified)	Rac GTPase-activating protein 1 (Homo sapiens)	18.4 µM (active)
Sc1nnc(-c2ccco2)n1/N=C/c1ccc(Cl)cc1	Rac GTPase-activating protein 1 (Homo sapiens)	58.3 µM (active)
O=C(Nc1ccc(N2CCCCCC2)cc1)c1ccc[nH]1	Rac GTPase-activating protein 1 (Homo sapiens)	34 µM (active)
CC(=O)N1CCN(c2ccc(NCc3cccc(C)c3)cc2)CC1	Rac GTPase-activating protein 1 (Homo sapiens)	9.89 µM (active)
COc1cc(-c2nc3ccccn3c2NCC2CCCO2)ccc1O (stereo unspecified)	Rac GTPase-activating protein 1 (Homo sapiens)	49.9 µM (active)
CCN1CCN(c2ccc(/N=C/c3ccc(O)cc3O)cc2)CC1	Rac GTPase-activating protein 1 (Homo sapiens)	28 µM (active)
